assay: Half life in CD3OD assessed as hydrogen-deuterium exchange by 1H-NMR analysis; type: physicochemical
Where a SMILES comes first, the peptide text is derived from it. Bridges are numbered along the chain shown (N, C = ends). [ ]: non-standard residue; d: D form. The star is where a group is joined. Phe(3,5-F2) = N[C@@H](Cc1cc(F)cc(F)c1)C(=O)O; Heptenoyl(2E) = CCCC/C=C/C(=O)*; NMeA = CN[C@@H](C)C(=O)O; Dap = NC[C@H](N)C(=O)O
MEASURED_ATTRIBUTE: half-life

Before answering, review these 2 worked examples.
MOLECULE	half-life
CCCC/C=C/C(=O)N[C@@H](Cc1cc(F)cc(F)c1)C(=O)N[C@H]1CN(C)C(=O)[C@@H]2CCCN2C(=O)[C@H](C)NC(=O)[C@H](C)N(C)C(=O)[C@@H]2CCCN2C1=O	< 4 min
CCCC/C=C/C(=O)N[C@@H](Cc1cc(F)cc(F)c1)C(=O)N[C@H]1CNC(=O)[C@@H]2CCCN2C(=O)[C@H](C)NC(=O)[C@H](C)N(C)C(=O)[C@@H]2CCCN2C1=O ({Heptenoyl(2E)}-[Phe(3,5-F2)][Dap]P[NMeA]AP; lactam 2-C)	< 4 min

--- query ---
Data request: Endpoint output: half-life of CCCC/C=C/C(=O)N[C@@H](Cc1cc(F)cc(F)c1)C(=O)N[C@H]1COC(=O)[C@@H]2CCCN2C(=O)[C@H](C)NC(=O)[C@H](C)N(C)C(=O)[C@@H]2CCCN2C1=O ({Heptenoyl(2E)}-[Phe(3,5-F2)]SP[NMeA]AP; ester 2-C) . Value?
Data returned: 38 min
